# testTarget: 3-phosphoinositide-dependent protein kinase 1 (Homo sapiens, UniProt O15530)
# Sequence (O15530 whole entry): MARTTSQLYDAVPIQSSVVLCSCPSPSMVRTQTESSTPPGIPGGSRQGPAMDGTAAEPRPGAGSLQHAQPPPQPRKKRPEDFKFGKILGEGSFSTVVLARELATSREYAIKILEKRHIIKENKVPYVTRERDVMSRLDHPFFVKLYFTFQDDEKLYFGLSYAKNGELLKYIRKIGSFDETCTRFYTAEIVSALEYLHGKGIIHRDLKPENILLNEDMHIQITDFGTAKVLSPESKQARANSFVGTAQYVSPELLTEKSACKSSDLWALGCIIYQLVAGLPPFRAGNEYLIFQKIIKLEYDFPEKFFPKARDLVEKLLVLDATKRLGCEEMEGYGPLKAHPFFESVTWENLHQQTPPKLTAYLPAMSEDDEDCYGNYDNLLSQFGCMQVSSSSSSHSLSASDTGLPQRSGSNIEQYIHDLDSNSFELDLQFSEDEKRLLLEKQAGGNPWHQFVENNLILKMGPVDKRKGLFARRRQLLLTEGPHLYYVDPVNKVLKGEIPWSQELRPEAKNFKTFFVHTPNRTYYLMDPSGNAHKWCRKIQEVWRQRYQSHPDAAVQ
measuredAttribute: IC50 (µM)
Answers are plain numbers, in µM.

The measured IC50 associated with O=C(O)CSC(CC(=O)c1ccc(Cl)cc1)c1ccccc1Sc1ccc(Cl)cc1 (stereo unspecified) reads 38

====

# testTarget: Serine/threonine-protein kinase PKH2 [1-944] (Candida albicans (strain SC5314 / ATCC MYA-2876))
# Construct: 1-944
# Sequence (Q5A3P6 1-944): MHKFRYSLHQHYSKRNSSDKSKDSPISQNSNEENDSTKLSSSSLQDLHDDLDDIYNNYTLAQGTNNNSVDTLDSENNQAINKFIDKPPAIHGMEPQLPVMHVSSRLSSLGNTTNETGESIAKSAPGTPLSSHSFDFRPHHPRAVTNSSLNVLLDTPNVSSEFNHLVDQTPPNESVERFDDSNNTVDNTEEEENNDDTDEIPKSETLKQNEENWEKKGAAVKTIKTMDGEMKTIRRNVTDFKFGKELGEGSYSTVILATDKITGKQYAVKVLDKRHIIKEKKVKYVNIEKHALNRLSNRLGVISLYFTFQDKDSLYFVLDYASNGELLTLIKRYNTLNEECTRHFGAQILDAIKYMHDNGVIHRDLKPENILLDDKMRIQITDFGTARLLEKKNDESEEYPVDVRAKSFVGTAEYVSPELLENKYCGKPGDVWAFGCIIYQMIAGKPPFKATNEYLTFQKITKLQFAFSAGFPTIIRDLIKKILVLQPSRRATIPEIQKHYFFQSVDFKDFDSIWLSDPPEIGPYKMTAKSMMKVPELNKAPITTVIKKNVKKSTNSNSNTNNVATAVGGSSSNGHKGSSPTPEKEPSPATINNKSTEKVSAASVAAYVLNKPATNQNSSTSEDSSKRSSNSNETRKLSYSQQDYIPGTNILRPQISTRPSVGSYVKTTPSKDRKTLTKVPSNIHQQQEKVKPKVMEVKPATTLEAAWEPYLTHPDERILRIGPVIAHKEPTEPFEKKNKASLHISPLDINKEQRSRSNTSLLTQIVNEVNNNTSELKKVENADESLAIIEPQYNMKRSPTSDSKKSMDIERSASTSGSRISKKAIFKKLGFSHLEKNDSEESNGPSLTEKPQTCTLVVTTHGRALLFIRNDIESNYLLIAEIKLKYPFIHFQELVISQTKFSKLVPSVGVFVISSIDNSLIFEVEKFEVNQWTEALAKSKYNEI
# methodNotes: AlphaScreen Assay
# conditionInfo: pH 7.4
measuredAttribute: pEC50
One number for each entry, as −log10 of the molar value.

Per the record, O=C(O)CSC(CC(=O)c1ccc(Cl)cc1)c1ccccc1Sc1ccc(Cl)cc1 (stereo unspecified) [PS77] has pEC50 of 4.36

====

# testTarget: 3-phosphoinositide-dependent protein kinase 1 (Homo sapiens)
# Sequence (O15530 whole entry): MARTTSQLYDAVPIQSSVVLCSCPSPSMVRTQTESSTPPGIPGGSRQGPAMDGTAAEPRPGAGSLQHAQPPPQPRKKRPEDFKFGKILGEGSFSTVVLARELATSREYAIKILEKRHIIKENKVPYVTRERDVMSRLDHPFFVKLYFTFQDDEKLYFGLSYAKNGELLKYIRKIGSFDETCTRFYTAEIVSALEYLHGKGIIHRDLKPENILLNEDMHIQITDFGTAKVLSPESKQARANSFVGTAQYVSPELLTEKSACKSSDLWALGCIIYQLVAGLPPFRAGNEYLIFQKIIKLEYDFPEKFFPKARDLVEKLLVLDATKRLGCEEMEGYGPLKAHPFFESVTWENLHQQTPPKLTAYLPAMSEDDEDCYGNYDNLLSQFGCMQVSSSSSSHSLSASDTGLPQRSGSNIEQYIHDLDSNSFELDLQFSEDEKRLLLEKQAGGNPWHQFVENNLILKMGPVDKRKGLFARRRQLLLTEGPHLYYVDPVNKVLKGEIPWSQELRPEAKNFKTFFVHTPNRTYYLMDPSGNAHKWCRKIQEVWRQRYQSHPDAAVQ
# methodNotes: AlphaScreen Assay
# conditionInfo: pH 7.4; room temperature
# Procedure: The AlphaScreen Assay (Perkin Elmer) was performed according to the manufacturer's protocol in 384-well microtiter plates. […] The reaction mix and the beads were incubated in the dark for 45 min at RT and the emission of light from the acceptor beads was measured in the EnVision reader (Perkin Elmer) and analyzed using the GraphPad Prism software.
Can you tell me pEC50 for the items I'm about to list?
Answers are plain numbers, as −log10 of the molar value.

Give pEC50 for all molecules that follow.
1. O=C(C[C@@H](c1ccccc1)C(C(=O)O)C(=O)O)c1ccc(C(F)(F)F)cc1
2. O=C(CC(c1ccccc1)C(C(=O)O)C(=O)O)c1ccc(Cl)cc1 (configuration not stated)

Reply:
[4.41, 4.59]
